Data credit: PubChem BioAssay (NCI)

Test system: EKVX NSCLC
Test: NCI tumour cell line growth inhibition, 48 h
Where a SMILES comes first, the peptide text is derived from it.
For each record, write down the corresponding TGI.

O=C(NCCNCCNC(=O)C(F)(F)F)C(F)(F)F: > 100 µM
CC1(C)N=C(C(=O)c2ccccc2)N(O)C1(O)c1ccccc1 (stereo not drawn): > 100 µM
COC(=O)c1ccccc1NC(=O)C(=O)CC(=O)CC(c1ccccc1)c1c(O)c2ccccc2oc1=O (stereo not drawn): > 100 µM
C=C1CC2(CCCC3(CC(=C)C(=O)O3)C2(C)C)OC1=O (stereo not drawn): 18.4 µM
CC(=O)c1sc(Nc2ccc(Cl)c(Cl)c2)nc1C: > 100 µM
Cc1ccc(CC(Cc2ccc(C)cc2C(=O)O)C(=O)O)cc1 (stereo not drawn): > 100 µM

Take each entry in turn and give its TGI.
1. CC(=O)c1cc2c(c3ccsc13)-c1ccccc1CC2
2. C/C1=C\C/C=C(\C)[C@H]2CC(CC/C(C)=C/CC1)[C@](C)(C=O)O2
3. COC(=O)C[C@H](COCc1ccccc1)NC(=O)C[C@H](COCc1ccccc1)NC(=O)OC(C)(C)C
4. CC1(C)CCC[C@]2(C)[C@@H]1CC[C@@]13O[C@@H]1C1=C(CO)C(=O)OC1=C[C@@H]23
5. CC(=O)OC1CC[C@@]2(C)C(C1)CC(OC(C)=O)[C@@H]1C2CC(OC(C)=O)[C@]2(C)C(C(C)CC=C(c3ccc(Cl)cc3)c3ccc(Cl)cc3)CCC12 (stereo partly drawn)
6. CCC(C)C(NC(=O)C1CCCN1C(=O)C(CC(C)C)NC(=O)C(CC(C)C)NC(=O)C(N)CC(C)C)C(=O)NC(C(=O)NCC(=O)NC(CC(N)=O)C(=O)NC(CC(C)C)C(=O)NC(CC(C)C)C(=O)NC(CC(C)C)C(N)=O)C(C)C (stereo not drawn) (H-LLLPIVGNLLL-NH2; configuration not given here)

Reply:
1: > 100 µM; 2: > 100 µM; 3: 45.4 µM; 4: 29.2 µM; 5: > 100 µM; 6: > 50 µM

Take each entry in turn and give its TGI.
1. O=c1[nH]c(Nc2ccc(Cl)cc2)nc2nc[nH]c12
2. S=C1N=C(Cl)/C(=C\c2ccco2)N1
3. O=c1c2ccccc2[nH]c(=S)n1-c1ccc(N=Nc2cccc3cc(O)ccc23)cc1

Reply:
1. > 100 µM
2. > 100 µM
3. > 100 µM

* * *

For each record, write down the corresponding TGI.
System: IGROV1 ovarian
Assay: NCI tumour cell line growth inhibition, 48 h
One number for each entry, in µM.

Before answering, review these 2 worked examples.
CCN(CC)CCOc1ccc2c(c1)C(=O)c1cc(OCCN(CC)CC)ccc1-2: 43.2
COc1cc2c(cc1OCCCCCCCCN1C(=O)c3cccc4cccc(c34)C1=O)N=C[C@@H]1CCCN1C2=O: 64.7

Take each entry in turn and give its TGI.
1. Cc1nc2ncn3c(c-2c1Cc1ccccc1)NC=C(O)N3
2. CCN(CC)Cc1cc(Nc2c3ccccc3nc3c4ccccc4n(C)c23)ccc1O
3. O=[N+]([O-])/C=C\c1c[nH]c2ccc(OCc3ccccc3)cc12
4. c1cc[c]([Sn]([S]c2cccc3cccnc23)([S]c2cccc3cccnc23)[c]2ccccc2)cc1

Reply:
[65.7, 31.2, 15.8, 0.789]
